Biological target: Voltage-dependent N-type calcium channel subunit alpha-1B (Homo sapiens)
Sequence (Q00975 whole entry): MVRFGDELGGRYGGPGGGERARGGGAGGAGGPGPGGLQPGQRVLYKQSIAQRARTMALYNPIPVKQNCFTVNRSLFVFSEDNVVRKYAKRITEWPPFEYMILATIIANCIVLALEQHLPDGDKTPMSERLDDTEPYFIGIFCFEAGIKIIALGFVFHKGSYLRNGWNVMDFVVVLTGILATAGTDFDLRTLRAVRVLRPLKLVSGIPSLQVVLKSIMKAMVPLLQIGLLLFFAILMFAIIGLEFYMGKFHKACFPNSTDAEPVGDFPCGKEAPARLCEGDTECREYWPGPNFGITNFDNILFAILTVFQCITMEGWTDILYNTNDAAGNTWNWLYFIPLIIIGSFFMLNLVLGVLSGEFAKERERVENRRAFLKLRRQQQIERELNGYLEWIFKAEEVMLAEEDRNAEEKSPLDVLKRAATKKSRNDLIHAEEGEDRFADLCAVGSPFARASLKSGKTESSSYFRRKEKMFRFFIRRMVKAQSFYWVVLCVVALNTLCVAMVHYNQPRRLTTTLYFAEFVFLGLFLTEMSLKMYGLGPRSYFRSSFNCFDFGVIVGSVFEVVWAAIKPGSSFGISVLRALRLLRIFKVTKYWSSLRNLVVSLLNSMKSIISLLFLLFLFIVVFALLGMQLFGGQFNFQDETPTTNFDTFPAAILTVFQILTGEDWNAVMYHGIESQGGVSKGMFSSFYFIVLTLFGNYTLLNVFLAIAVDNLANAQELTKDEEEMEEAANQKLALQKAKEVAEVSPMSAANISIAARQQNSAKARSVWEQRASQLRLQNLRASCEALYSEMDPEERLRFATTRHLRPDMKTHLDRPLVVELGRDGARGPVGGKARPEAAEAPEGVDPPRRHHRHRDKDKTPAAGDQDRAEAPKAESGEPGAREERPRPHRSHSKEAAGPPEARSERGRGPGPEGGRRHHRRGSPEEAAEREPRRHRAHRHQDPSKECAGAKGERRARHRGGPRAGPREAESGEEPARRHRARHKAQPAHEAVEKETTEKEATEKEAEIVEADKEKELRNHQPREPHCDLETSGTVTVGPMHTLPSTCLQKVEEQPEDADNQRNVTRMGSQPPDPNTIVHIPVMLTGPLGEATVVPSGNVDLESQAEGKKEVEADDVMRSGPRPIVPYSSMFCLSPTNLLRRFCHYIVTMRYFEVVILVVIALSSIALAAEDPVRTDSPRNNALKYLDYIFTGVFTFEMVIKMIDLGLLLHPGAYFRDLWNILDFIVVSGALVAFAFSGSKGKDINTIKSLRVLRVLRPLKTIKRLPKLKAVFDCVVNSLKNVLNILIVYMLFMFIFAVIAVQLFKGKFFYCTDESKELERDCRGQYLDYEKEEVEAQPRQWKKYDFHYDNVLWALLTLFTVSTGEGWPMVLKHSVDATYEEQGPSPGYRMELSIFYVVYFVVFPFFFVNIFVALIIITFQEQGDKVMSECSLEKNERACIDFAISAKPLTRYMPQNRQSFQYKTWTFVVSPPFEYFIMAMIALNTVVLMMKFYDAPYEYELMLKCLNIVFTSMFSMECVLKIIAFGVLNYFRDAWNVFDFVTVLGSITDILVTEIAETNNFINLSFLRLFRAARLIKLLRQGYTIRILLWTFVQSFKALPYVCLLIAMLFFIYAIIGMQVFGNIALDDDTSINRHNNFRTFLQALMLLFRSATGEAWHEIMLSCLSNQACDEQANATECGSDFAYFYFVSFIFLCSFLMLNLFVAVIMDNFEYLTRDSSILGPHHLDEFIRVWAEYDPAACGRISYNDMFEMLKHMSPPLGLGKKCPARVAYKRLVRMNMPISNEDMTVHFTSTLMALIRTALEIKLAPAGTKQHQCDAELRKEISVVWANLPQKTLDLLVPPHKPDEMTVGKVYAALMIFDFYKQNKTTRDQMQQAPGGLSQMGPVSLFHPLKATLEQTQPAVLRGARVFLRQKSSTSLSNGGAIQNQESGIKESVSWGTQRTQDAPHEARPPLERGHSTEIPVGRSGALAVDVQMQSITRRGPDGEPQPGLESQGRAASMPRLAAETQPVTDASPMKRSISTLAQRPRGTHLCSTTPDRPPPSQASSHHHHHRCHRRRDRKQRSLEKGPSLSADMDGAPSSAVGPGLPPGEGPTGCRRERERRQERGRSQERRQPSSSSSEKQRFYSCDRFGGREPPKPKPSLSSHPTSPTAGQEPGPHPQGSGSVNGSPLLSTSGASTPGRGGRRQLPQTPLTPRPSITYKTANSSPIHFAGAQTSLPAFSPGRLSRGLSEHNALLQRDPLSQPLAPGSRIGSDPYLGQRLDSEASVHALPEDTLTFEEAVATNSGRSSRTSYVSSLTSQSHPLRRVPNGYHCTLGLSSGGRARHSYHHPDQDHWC
Test: In vitro N-type [Ca2+] channel blocking potency in IMR-32 human neuroblastoma cells
pIC50: −log10 of the molar value.
metric.name: pIC50

compound="CC(C)CCN1C(C)CCCC1C(=O)N[C@@H](Cc1ccc(OC(=O)c2ccccc2)cc1)C(=O)OC(C)(C)C (some centres undefined)" number=6.49
compound="CC(C)CCN1CCC(C(C)C)CC1C(=O)N[C@@H](Cc1ccc(OC(=O)c2ccccc2)cc1)C(=O)OC(C)(C)C (some centres undefined)" number=6.31

I: CC(C)CCN(C)[C@H](CC(C)C)C(=O)N[C@@H](Cc1ccc(OC(=O)c2ccccc2)cc1)C(=O)NC(C)(C)C
II: CC(C)CCN1CCC(C(=O)N[C@@H](Cc2ccc(OC(=O)c3ccccc3)cc2)C(=O)OC(C)(C)C)CC1
Pick one: I or II . Which one has the lower reported pIC50? Refer to your chosen entry by its label in the reply.
II
(II: 5.82, I: 6.43)
